molecular target: UniProt P08172; experiment: Functional M2-GIRK1/4 activation test: allosteric potency (EC50) and efficiency; settings: read-out: Efficiency, boosting of the acetylcholine effect at EC20 acetylcholine concentration; CHO-DUKX-M2-GIRK cells
Readout: Emax (%)

{"Compound": "CC[C@@H](NC(=O)c1cn(-c2ncc(F)cc2F)c2nc(N3CC4CC4(O)C3)ccc2c1=O)C(F)(F)F (single isomer, unassigned) [Example 44]", "Uom": "%", "Emax": 98.5}
{"Compound": "CC1(NC(=O)c2cn(-c3ncc(F)cc3F)c3nc(N4C[C@@H](O)[C@H](O)C4)ccc3c2=O)CC(F)(F)C1 [Example 170]", "Uom": "%", "Emax": 86}
{"Compound": "CC[C@@H](NC(=O)c1cn(-c2ncc(F)cc2F)c2nc(N3CC4CC4(O)C3)ccc2c1=O)C(F)(F)F (mixture of isomers) [Example 43]", "Uom": "%", "Emax": 100}

* * *

Molecular target: human M2 receptor (Homo sapiens, UniProt P08172)
Sequence (P08172 1-466): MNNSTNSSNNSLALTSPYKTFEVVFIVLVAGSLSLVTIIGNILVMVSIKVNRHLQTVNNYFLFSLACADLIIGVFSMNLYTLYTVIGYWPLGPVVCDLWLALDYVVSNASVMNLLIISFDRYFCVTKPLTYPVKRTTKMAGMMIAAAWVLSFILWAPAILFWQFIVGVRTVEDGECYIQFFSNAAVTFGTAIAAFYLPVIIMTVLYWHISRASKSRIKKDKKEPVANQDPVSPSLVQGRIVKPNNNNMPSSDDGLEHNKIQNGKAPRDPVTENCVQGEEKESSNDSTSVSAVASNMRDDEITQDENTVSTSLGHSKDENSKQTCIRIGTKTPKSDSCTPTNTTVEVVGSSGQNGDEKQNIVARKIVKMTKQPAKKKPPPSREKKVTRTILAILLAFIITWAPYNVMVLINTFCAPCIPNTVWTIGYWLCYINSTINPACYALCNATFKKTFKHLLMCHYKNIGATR
Experiment: Functional M2-GIRK1/4 activation test: allosteric potency (EC50) and efficiency
Details: Receptor activity EC50, CHO-DUKX-M2-GIRK cells; acetylcholine at EC20; in some cases mean of two or more determinations
pEC50: −log10 of the molar value.
Readout: pEC50

{"Molecule": "CC(C)C[C@H](NC(=O)c1cn(-c2ncc(F)cc2F)c2nc(N3C[C@@H](O)CC3=O)ccc2c1=O)C(F)(F)F", "Assayed system": "human M2 receptor (Homo sapiens, UniProt P08172)", "pEC50": 7.72}
{"Molecule": "CC(NC(=O)c1cn(-c2ncc(F)cc2F)c2nc(N3CCNC3=O)ccc2c1=O)C(F)(F)C(F)(F)F (single isomer, unassigned) [Example 162]", "Assayed system": "human M2 receptor (Homo sapiens, UniProt P08172)", "pEC50": 7.62}
{"Molecule": "O=C(NC(C(F)(F)F)C(F)(F)F)c1cn(-c2ncc(F)cc2F)c2nc(N3CCNC3=O)ccc2c1=O", "Assayed system": "human M2 receptor (Homo sapiens, UniProt P08172)", "pEC50": 6.94}
{"Molecule": "CC[C@@H](NC(=O)c1cn(-c2ncccc2Cl)c2nc(N3CC4CC4(O)C3)ccc2c1=O)C(F)(F)F (mixture of isomers)", "Assayed system": "human M2 receptor (Homo sapiens, UniProt P08172)", "pEC50": 6.19}
{"Molecule": "CC(NC(=O)c1cn(-c2ncc(F)cc2F)c2nc(N3C[C@@H](O)[C@H](O)C3)ccc2c1=O)C(F)(F)C(F)(F)F (single isomer, unassigned) [Example 90]", "Assayed system": "human M2 receptor (Homo sapiens, UniProt P08172)", "pEC50": 7.62}
{"Molecule": "CCC(COC(F)(F)F)NC(=O)c1cn(-c2ncc(F)cc2F)c2nc(N3C[C@@H](O)CC3=O)ccc2c1=O (single isomer, unassigned) [Example 18]", "Assayed system": "human M2 receptor (Homo sapiens, UniProt P08172)", "pEC50": 7.17}

I: CC1C(=O)N(c2ccc3c(=O)c(C(=O)N[C@@H](C4CC4)C(F)(F)F)cn(-c4ncc(F)cc4F)c3n2)CC1O (single isomer, unassigned) [Example 105]
II: O=C(NC(C(F)(F)F)C(F)(F)F)c1cn(-c2ncc(F)cc2F)c2nc(N3C[C@@H](O)[C@H](O)C3)ccc2c1=O
III: CC1(C)C(=O)N(c2ccc3c(=O)c(C(=O)N[C@@H](C4CC4)C(F)(F)F)cn(-c4ncc(F)cc4F)c3n2)C2(CC2)C1O (stereo partly drawn)
IV: CC(NC(=O)c1cn(-c2ncc(F)cc2F)c2nc(N3C[C@@H](O)CC3=O)ccc2c1=O)C(F)(F)C(F)(F)F (single isomer, unassigned) [Example 77]
V: CC[C@H](NC(=O)c1cn(-c2ncc(F)cc2F)c2nc(N3CCNC3=O)ccc2c1=O)C(F)(F)F
Number of molecules to sort: 5. Sort criterion: pEC50, ascending. Please express your ranking as an ordered list of the labels.
III, IV, V, I, II

* * *

biological target: human M2 receptor (Homo sapiens); test: Functional M2-GIRK1/4 activation test: allosteric potency (EC50) and efficiency; settings: boosting of the acetylcholine effect at EC20 acetylcholine concentration; CHO-DUKX-M2-GIRK cells
Readout: Efficiency (%)

{"Compound": "O=C(NC(c1ccccc1Cl)C(F)(F)F)c1cn(-c2ncc(F)cc2F)c2nc(N3C[C@@H](O)[C@H](O)C3)ccc2c1=O (single isomer, unassigned) [Example 85]", "Efficiency / %": 99.00}
{"Compound": "CCC(NC(=O)c1cn(-c2ncc(F)cc2F)c2nc(N3C[C@@H](O)[C@H](O)C3)ccc2c1=O)C(F)(F)C(F)(F)F (single isomer, unassigned) [Example 97]", "Efficiency / %": 96.50}
{"Compound": "CCC(COC(F)(F)F)NC(=O)c1cn(-c2ncc(F)cc2F)c2nc(N3C[C@@H](O)CC3=O)ccc2c1=O (single isomer, unassigned) [Example 19]", "Efficiency / %": 91.50}
{"Compound": "CC(NC(=O)c1cn(-c2ncc(F)cc2F)c2nc(N3CCNC3=O)ccc2c1=O)C(F)(F)C(F)(F)F (single isomer, unassigned) [Example 163]", "Efficiency / %": 100.00}
{"Compound": "CCC(NC(=O)c1cn(-c2ncc(F)cc2F)c2nc(N3CCNC3=O)ccc2c1=O)C(F)(F)C(F)(F)F (single isomer, unassigned) [Example 166]", "Efficiency / %": 81.00}

* * *

Target: human M2 receptor (Homo sapiens)
Sequence (P08172 1-466): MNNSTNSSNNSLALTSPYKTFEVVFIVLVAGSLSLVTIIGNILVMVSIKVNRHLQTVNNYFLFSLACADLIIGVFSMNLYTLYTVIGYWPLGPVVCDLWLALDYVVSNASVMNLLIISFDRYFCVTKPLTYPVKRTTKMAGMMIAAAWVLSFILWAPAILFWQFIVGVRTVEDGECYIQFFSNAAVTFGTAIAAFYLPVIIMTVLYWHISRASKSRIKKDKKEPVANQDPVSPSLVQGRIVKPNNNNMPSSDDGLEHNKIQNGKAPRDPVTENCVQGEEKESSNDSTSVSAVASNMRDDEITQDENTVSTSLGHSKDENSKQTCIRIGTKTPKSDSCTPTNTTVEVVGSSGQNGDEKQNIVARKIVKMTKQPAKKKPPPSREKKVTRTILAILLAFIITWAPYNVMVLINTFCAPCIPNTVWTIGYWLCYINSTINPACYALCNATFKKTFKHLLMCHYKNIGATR
Experiment: Functional M2-GIRK1/4 activation test: allosteric potency (EC50) and efficiency
Conditions: read-out: Efficiency, boosting of the acetylcholine effect at EC20 acetylcholine concentration; CHO-DUKX-M2-GIRK cells
Readout: Emax (%)

{"Molecule": "CC(NC(=O)c1cn(-c2ncc(F)cc2F)c2nc(N3CC4(COC4)C3)ccc2c1=O)C(F)(F)C(F)(F)F (single isomer, unassigned) [Example 181]", "Assayed system": "human M2 receptor (Homo sapiens)", "Readout": "Emax", "Measured": 100}
{"Molecule": "O=C(NC(CC(F)(F)F)C(F)(F)F)c1cn(-c2ncc(F)cc2F)c2nc(N3C[C@@H](O)[C@H](O)C3)ccc2c1=O (some centres unmarked) [Example 160]", "Assayed system": "human M2 receptor (Homo sapiens)", "Readout": "Emax", "Measured": 90.5}
{"Molecule": "O=C(NC(c1ccccc1Cl)C(F)(F)F)c1cn(-c2ncc(F)cc2F)c2nc(N3CCNC3=O)ccc2c1=O (racemic) [Example 147]", "Assayed system": "human M2 receptor (Homo sapiens)", "Readout": "Emax", "Measured": 98.5}
{"Molecule": "O=C(NC(C1CC1)C(F)(F)F)c1cn(-c2ncc(F)cc2F)c2nc(N3CC[C@H](O)C3=O)ccc2c1=O (some centres unmarked) [Example 25]", "Assayed system": "human M2 receptor (Homo sapiens)", "Readout": "Emax", "Measured": 98}
{"Molecule": "CC1C(=O)N(c2ccc3c(=O)c(C(=O)N[C@@H](C)C(F)(F)F)cn(-c4ncc(F)cc4F)c3n2)CC1O (mixture of isomers) [Example 112]", "Assayed system": "human M2 receptor (Homo sapiens)", "Readout": "Emax", "Measured": 98}
{"Molecule": "CC(C)C[C@@H](NC(=O)c1cn(-c2ncc(F)cc2F)c2nc(N3CCNC3=O)ccc2c1=O)C(F)(F)F [Example 156]", "Assayed system": "human M2 receptor (Homo sapiens)", "Readout": "Emax", "Measured": 100}
{"Molecule": "O=C(N[C@@H](C1CC1)C(F)(F)F)c1cn(-c2ncc(F)cc2F)c2nc(N3C[C@@H](O)CC3=O)ccc2c1=O [Example 14]", "Assayed system": "human M2 receptor (Homo sapiens)", "Readout": "Emax", "Measured": 98.5}
{"Molecule": "CC[C@H](NC(=O)c1cn(-c2ncc(F)cc2F)c2nc(N3C(=O)C(C)(C)C(O)C34CC4)ccc2c1=O)C(F)(F)F (some centres unmarked) [Example 31]", "Assayed system": "human M2 receptor (Homo sapiens)", "Readout": "Emax", "Measured": 88.5}
{"Molecule": "CC[C@@H](NC(=O)c1cn(-c2ncc(F)cc2F)c2nc(N3CCCCC3=O)ccc2c1=O)C(F)(F)F [Example 34]", "Assayed system": "human M2 receptor (Homo sapiens)", "Readout": "Emax", "Measured": 82}
{"Molecule": "CC(C)(C)[C@H](NC(=O)c1cn(-c2ncc(F)cc2F)c2nc(N3C[C@@H](O)[C@H](O)C3)ccc2c1=O)C(F)(F)F [Example 99]", "Assayed system": "human M2 receptor (Homo sapiens)", "Readout": "Emax", "Measured": 100}
{"Molecule": "O=C(NC(c1cccc(F)c1)C(F)(F)F)c1cn(-c2ncccc2Cl)c2nc(N3C[C@@H](O)CC3=O)ccc2c1=O (some centres unmarked) [Example 23]", "Assayed system": "human M2 receptor (Homo sapiens)", "Readout": "Emax", "Measured": 92}
{"Molecule": "CC[C@H](NC(=O)c1cn(-c2ncc(F)cc2F)c2nc(N3CC(F)C3)ccc2c1=O)C(F)(F)F [Example 132]", "Assayed system": "human M2 receptor (Homo sapiens)", "Readout": "Emax", "Measured": 98}
{"Molecule": "O=C(NC(C1CC1)C(F)(F)F)c1cn(-c2ncc(F)cc2F)c2nc(N3C[C@@H](O)[C@@H](O)C3)ccc2c1=O (some centres unmarked) [Example 35]", "Assayed system": "human M2 receptor (Homo sapiens)", "Readout": "Emax", "Measured": 99.5}
{"Molecule": "CC1(O)CCN(c2ccc3c(=O)c(C(=O)N[C@H](C4CC4)C(F)(F)F)cn(-c4ncc(F)cc4Cl)c3n2)C1 (mixture of isomers) [Example 53]", "Assayed system": "human M2 receptor (Homo sapiens)", "Readout": "Emax", "Measured": 96.5}
